pIC50: −log10 of the molar value.
So I've got pIC50 readings for human CYP2D6 (Homo sapiens, UniProt P10635), take a look.

# count of solved cases: 5
molecule	measurement-name	observed-measurement
N[C@@H]1CCN(c2nc3ccccc3n([C@H]3C[C@H]4CC[C@@H](C3)N4C3CCCCCCC3)c2=O)C1 [CC101, reference compound]	pIC50	> 6.00
O=c1c(N2CCNCC2)nc2ccccc2n1C1CCN(C2CCCCCCC2)CC1 [CC10, reference compound]	pIC50	> 6.00
O=c1ncc(-c2nc3ccccc3n([C@H]3C[C@H]4CCC[C@@H](C3)N4[C@H]3C[C@@H]4CCC[C@@H](C4)C3)c2=O)c[nH]1	pIC50	< 4.70
O=C(O)Cn1c(-c2nc3ccccc3n([C@H]3C[C@H]4CCC[C@@H](C3)N4C3CCCCCCCCC3)c2=O)cccc1=O	pIC50	< 4.70
O=C(O)CCn1cccc(-c2nc3ccccc3n([C@H]3C[C@H]4CCC[C@@H](C3)N4[C@H]3C[C@@H]4CCC[C@@H](C4)C3)c2=O)c1=O	pIC50	< 4.70

# next molecule below
Look up pIC50: N[C@H]1CCN(c2nc3ccccc3n(C3CCN(C4CCCCCCC4)CC3)c2=O)C1 [CC39, reference compound]
> 6.00

====

Would you mind telling me the reported EC50 of each entry?
- subject-of-test: human opioid receptor-like (ORL-1) (Homo sapiens)
- Sequence (P41146 whole entry): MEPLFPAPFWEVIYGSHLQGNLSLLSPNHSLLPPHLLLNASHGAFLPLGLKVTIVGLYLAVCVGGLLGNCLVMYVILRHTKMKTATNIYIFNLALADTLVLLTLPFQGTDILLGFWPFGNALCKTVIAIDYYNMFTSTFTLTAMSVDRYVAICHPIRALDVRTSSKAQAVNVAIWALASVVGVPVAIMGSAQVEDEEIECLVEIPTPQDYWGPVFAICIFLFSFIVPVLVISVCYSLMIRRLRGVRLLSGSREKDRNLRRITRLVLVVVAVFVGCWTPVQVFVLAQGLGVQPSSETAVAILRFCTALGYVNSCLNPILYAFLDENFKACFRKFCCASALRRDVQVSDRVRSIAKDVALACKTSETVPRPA
- method-description: In vitro ORL-1 receptor [35S]GTPγS functional assay

Examples with answers:
molecule	subject-of-test	observed-measurement
O=c1ccn(-c2nc3ccccc3n([C@H]3C[C@H]4CCC[C@@H](C3)N4[C@@H]3C[C@@H]4CCCC[C@@H](C4)C3)c2=O)c(=O)[nH]1 [Compound O13b]	human opioid receptor-like (ORL-1) (Homo sapiens)	> 20 µM
O=C(O)CCn1cccc(-c2nc3ccccc3n([C@H]3C[C@H]4CCC[C@@H](C3)N4[C@H]3C[C@@H]4CCC[C@@H](C4)C3)c2=O)c1=O [Compound U057]	human opioid receptor-like (ORL-1) (Homo sapiens)	> 20 µM
O=c1[nH]cc(F)cc1-c1nc2ccccc2n([C@H]2C[C@H]3CCC[C@@H](C2)N3[C@H]2C[C@@H]3CCC[C@@H](C3)C2)c1=O [R16a(i)]	human opioid receptor-like (ORL-1) (Homo sapiens)	1.61 µM
O=C1CN(c2nc3ccccc3n([C@H]3C[C@H]4CCC[C@@H](C3)N4[C@H]3C[C@@H]4CCC[C@@H](C4)C3)c2=O)C(=O)N1 [Compound B17a]	human opioid receptor-like (ORL-1) (Homo sapiens)	> 20 µM
O=c1ncc(-c2nc3ccccc3n([C@H]3C[C@H]4CCC[C@@H](C3)N4[C@H]3C[C@@H]4CCC[C@@H](C4)C3)c2=O)c[nH]1 [Compound U048]	human opioid receptor-like (ORL-1) (Homo sapiens)	> 20 µM

We now examine a further molecule.
# get_value(readout='EC50', item= Nc1ccn(-c2nc3ccccc3n([C@H]3C[C@H]4CCC[C@@H](C3)N4[C@@H]3C[C@@H]4CCCC[C@@H](C4)C3)c2=O)c(=O)n1 [Compound U068] )
> 20 µM

====

- subject-of-test: human opioid receptor-like (ORL-1) (Homo sapiens)
- method-description: In vitro ORL-1 receptor [35S]GTPγS functional assay
measurement-name: EC50

Please review the entries below; each comes with its answer.
compound	EC50
Cc1nn(-c2nc3ccccc3n([C@H]3C[C@H]4CCC[C@@H](C3)N4[C@H]3C[C@@H]4CCC[C@@H](C4)C3)c2=O)c(=S)[nH]c1=O	> 20 µM
O=c1ccn(-c2nc3ccccc3n([C@H]3C[C@H]4CCC[C@@H](C3)N4[C@H]3C[C@@H]4CCC[C@@H](C4)C3)c2=O)c(=O)[nH]1 [Compound B13a]	> 20 µM
O=c1cnn(-c2nc3ccccc3n([C@H]3C[C@H]4CC[C@@H](C3)N4[C@H]3C[C@@H]4CCC[C@@H](C4)C3)c2=O)c(=O)[nH]1	0.378 µM

Kindly give each listed record's EC50.
1. CC1(C)C(=O)NC(=O)N1c1nc2ccccc2n([C@H]2C[C@H]3CCC[C@@H](C2)N3[C@@H]2C[C@@H]3CCCC[C@@H](C3)C2)c1=O [Compound O19a]
2. O=c1cnn(-c2nc3ccccc3n([C@H]3C[C@H]4COC[C@@H](C3)N4[C@@H]3C[C@@H]4CCCC[C@@H](C4)C3)c2=O)c(=O)[nH]1
3. O=c1[nH]cnn1-c1nc2ccccc2n([C@H]2C[C@H]3CCC[C@@H](C2)N3[C@H]2C[C@@H]3CCC[C@@H](C3)C2)c1=O [Compound B23a]

["> 20 µM", "0.104 µM", "> 20 µM"]

====

- subject-of-test: human kappa opioid receptor (Homo sapiens, UniProt P41145)
- Sequence (P41145 whole entry): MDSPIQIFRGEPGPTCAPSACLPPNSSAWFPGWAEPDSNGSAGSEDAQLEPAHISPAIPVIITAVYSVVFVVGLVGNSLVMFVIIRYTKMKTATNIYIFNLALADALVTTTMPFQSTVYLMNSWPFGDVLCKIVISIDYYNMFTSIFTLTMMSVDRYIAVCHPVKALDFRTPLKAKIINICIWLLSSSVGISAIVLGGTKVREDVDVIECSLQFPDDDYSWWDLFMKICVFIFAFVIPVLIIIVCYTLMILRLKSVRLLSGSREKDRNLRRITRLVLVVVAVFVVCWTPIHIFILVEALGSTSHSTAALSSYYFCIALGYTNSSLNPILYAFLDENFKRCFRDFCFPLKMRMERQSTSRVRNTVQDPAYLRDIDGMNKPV
measurement-name: Ki (µM)
One number for each entry, in µM.

Any idea what its Ki is? The molecule is "O=c1cnn(-c2nc3ccccc3n([C@H]3C[C@H]4COC[C@@H](C3)N4[C@@H]3C[C@@H]4CCCC[C@@H](C4)C3)c2=O)c(=O)[nH]1"
13.1

====

Record type: IC50 measurement. Applies to: human CYP2D6 (Homo sapiens, UniProt P10635)

compound	IC50
C[C@@H]1C[C@@H]2C[C@H](C1)C[C@@H](N1[C@@H]3CCC[C@H]1C[C@@H](n1c(=O)c(-n4ncc(=O)[nH]c4=O)nc4ccccc41)C3)C2 [Compound B34a]	> 20 µM
O=C1CNC(=O)N1c1nc2ccccc2n([C@H]2C[C@H]3CCC[C@@H](C2)N3[C@H]2C[C@@H]3CCC[C@@H](C3)C2)c1=O [Compound B20a]	> 20 µM
Nc1nc(=O)n(-c2nc3ccccc3n([C@H]3C[C@H]4CCC[C@@H](C3)N4[C@@H]3C[C@@H]4CCCC[C@@H](C4)C3)c2=O)cc1F	> 20 µM
O=c1cnn(-c2nc3ccccc3n([C@H]3C[C@H]4CC[C@@H](C3)N4[C@@H]3C[C@@H]4CCCC[C@@H](C4)C3)c2=O)c(=O)[nH]1	> 20 µM
Nc1nc(=O)n(-c2nc3ccccc3n([C@H]3C[C@H]4CCC[C@@H](C3)N4[C@H]3C[C@@H]4CCC[C@@H](C4)C3)c2=O)cc1F	> 20 µM

Requested field: IC50. Item: O=C(O)Cn1cccc(-c2nc3ccccc3n([C@H]3C[C@H]4CCC[C@@H](C3)N4C3CCCCCCCCC3)c2=O)c1=O [BB13c(iii)]
> 20 µM

====

Can you tell me EC50 for the items I'm about to list?
- subject-of-test: human opioid receptor-like (ORL-1) (Homo sapiens)
- method-description: In vitro ORL-1 receptor [35S]GTPγS functional assay
- Format: biochemical

Please review the entries below; each comes with its answer.
compound	measurement-name	observed-measurement
CC1(C)C(=O)NC(=O)N1c1nc2ccccc2n([C@H]2C[C@H]3CCC[C@@H](C2)N3[C@H]2C[C@@H]3CCC[C@@H](C3)C2)c1=O [Compound B19a]	EC50	> 20 µM
O=c1cnn(-c2nc3ccccc3n([C@H]3C[C@H]4CCC[C@@H](C3)N4[C@@H]3C[C@@H]4CCCC[C@@H](C4)C3)c2=O)c(=O)[nH]1 [Compound O9b]	EC50	> 20 µM
Nc1ccn(-c2nc3ccccc3n([C@H]3C[C@H]4CCC[C@@H](C3)N4[C@H]3C[C@@H]4CCC[C@@H](C4)C3)c2=O)c(=O)n1 [B5a(i)]	EC50	> 20 µM

Batch request: EC50 for each of the following compounds.
1. Cc1nn(-c2nc3ccccc3n([C@H]3C[C@H]4CCC[C@@H](C3)N4[C@H]3C[C@@H]4CCC[C@@H](C4)C3)c2=O)c(=O)[nH]c1=O [Compound B10a]
2. O=C1CNC(=O)N1c1nc2ccccc2n([C@H]2C[C@H]3CCC[C@@H](C2)N3[C@H]2C[C@@H]3CCC[C@@H](C3)C2)c1=O [Compound B20a]

1. > 20 µM
2. > 20 µM

====

- subject-of-test: human CYP2D6 (Homo sapiens)
- Sequence (P10635 whole entry): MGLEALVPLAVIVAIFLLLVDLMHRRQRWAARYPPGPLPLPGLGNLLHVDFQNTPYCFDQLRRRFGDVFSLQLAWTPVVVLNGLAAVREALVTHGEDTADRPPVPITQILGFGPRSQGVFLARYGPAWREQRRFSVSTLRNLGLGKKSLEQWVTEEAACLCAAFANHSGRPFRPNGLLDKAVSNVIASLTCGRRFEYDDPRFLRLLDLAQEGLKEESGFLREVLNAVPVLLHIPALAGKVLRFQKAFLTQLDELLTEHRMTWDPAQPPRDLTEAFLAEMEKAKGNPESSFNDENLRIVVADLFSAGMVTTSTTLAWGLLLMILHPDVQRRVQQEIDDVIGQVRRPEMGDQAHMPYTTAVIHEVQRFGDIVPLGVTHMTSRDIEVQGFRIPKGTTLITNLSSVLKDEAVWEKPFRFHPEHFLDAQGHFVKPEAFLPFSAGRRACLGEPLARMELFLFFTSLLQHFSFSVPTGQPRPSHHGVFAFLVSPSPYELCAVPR
measurement-name: IC50

Lab note: each compound below needs its IC50 filled in.
1. O=C1CCN(c2nc3ccccc3n(C3CCN(C4CCCCCCC4)CC3)c2=O)N1 [CC119, reference compound]
2. O=c1ccn(-c2nc3ccccc3n([C@H]3C[C@H]4CCC[C@@H](C3)N4[C@@H]3C[C@@H]4CCCC[C@@H](C4)C3)c2=O)c(=O)[nH]1 [Compound O13b]
3. Cc1nn(-c2nc3ccccc3n([C@H]3C[C@H]4CCC[C@@H](C3)N4[C@H]3C[C@@H]4CCC[C@@H](C4)C3)c2=O)c(=O)[nH]c1=O [Compound B10a]
4. C[C@@H]1C[C@@H]2C[C@H](C1)C[C@@H](N1[C@@H]3CCC[C@H]1C[C@@H](n1c(=O)c(-c4ccc(=O)[nH]c4)nc4ccccc41)C3)C2

1: > 20 µM; 2: > 20 µM; 3: > 20 µM; 4: > 20 µM

// for each compound below, give its IC50
1. O=C1CN(c2nc3ccccc3n(C3CCN(C4CCCCCCC4)CC3)c2=O)CCN1 [CC18, reference compound]
2. O=c1cnn(-c2nc3ccccc3n([C@H]3C[C@H]4CCC[C@@H](C3)N4[C@H]3C[C@@H]4CCC[C@@H](C4)C3)c2=O)c(=O)[nH]1
3. Nc1ccn(-c2nc3ccccc3n([C@H]3C[C@H]4CCC[C@@H](C3)N4[C@H]3C[C@@H]4CCC[C@@H](C4)C3)c2=O)c(=O)n1
4. O=C(O)CN1CCN(c2nc3ccccc3n([C@H]3C[C@H]4CC[C@@H](C3)N4C3CCCCCCC3)c2=O)CC1 [CC337, reference compound]
5. O=C(O)c1cc(-c2nc3ccccc3n([C@H]3C[C@H]4CCC[C@@H](C3)N4[C@@H]3C[C@@H]4CCCC[C@@H](C4)C3)c2=O)c[nH]c1=O

["< 1 µM", "> 20 µM", "> 20 µM", "13 µM", "> 20 µM"]

Count: 3. Required value per item: IC50.
1. O=C(O)Cn1cc(-c2nc3ccccc3n([C@H]3C[C@H]4CCC[C@@H](C3)N4[C@H]3C[C@@H]4CCC[C@@H](C4)C3)c2=O)ccc1=O
2. O=c1cnn(-c2nc3ccccc3n([C@H]3C[C@H]4COC[C@@H](C3)N4[C@@H]3C[C@@H]4CCCC[C@@H](C4)C3)c2=O)c(=O)[nH]1
3. Cc1nn(-c2nc3ccccc3n([C@H]3C[C@H]4CCC[C@@H](C3)N4[C@@H]3C[C@@H]4CCCC[C@@H](C4)C3)c2=O)c(=O)[nH]c1=O [Compound O10b]

1. > 20 µM
2. > 20 µM
3. > 20 µM
